- MEASUREMENT_NOTES: Pharmacokinetics assay in rats
- Type: in vivo, SD rats
- EXPERIMENTAL_PARAMETERS: rat, IV 1 mg/kg
ASSAY_METRIC: Apparent distribution volume Vss_obs (mL/kg)
Answer in mL/kg, number only, no unit symbol.

Value of measured Apparent distribution volume Vss_obs for the entry CNc1nccc(Sc2c(C)nc(N3CCC4(CC3)Cc3ncccc3[C@H]4N)n3ccnc23)c1Cl : 4750

For C[C@@H]1OCC2(CCN(c3ncc(Sc4cccnc4C(F)(F)F)c4nccn34)CC2)[C@@H]1N the compound record lists Apparent distribution volume Vss_obs as 3800

For Cc1nc(N2CCC3(CC2)CO[C@@H](C)[C@H]3N)n2ccnc2c1-c1cccc(Cl)c1Cl (single isomer, unassigned) [The atropisomer with a RT of 1.495 minutes in Examples 3 and 4] the compound record lists Apparent distribution volume Vss_obs as 2030

Query CNc1nccc(Sc2cnc(N3CCC4(CC3)Cc3ncccc3[C@H]4N)n3ccnc23)c1Cl yields Apparent distribution volume Vss_obs of 765

----------
Please go through the items and note down their pIC50.
- MEASURED_ON: SHP2 wild-type phosphatase (recombinantly expressed full-length SHP2, aa 1-593) (Homo sapiens)
- MEASUREMENT_NOTES: In vitro activity on SHP2 wild-type phosphatase (DiFMUP fluorescence);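 note: enzyme preincubated at room temperature, then DiFMUP reaction run at room temperature and halted with SDS, potency derived from a logistic curve fit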
- EXPERIMENTAL_PARAMETERS: wild-type full-length SHP2, activated polypeptide IRS1 0.5 nM, DiFMUP 30 μM
pIC50 is a log-scale quantity: -log10 of the concentration expressed in molar.

Input Cc1nc(N2CCC3(CC2)Cc2ccccc2[C@H]3N)n2ccnc2c1-c1cccc(Cl)c1Cl . Output pIC50: 8.30

The reported value for N[C@@H]1c2cccnc2CC12CCN(c1ncc(Sc3ccnc(N4CCOCC4)c3Cl)c3nccn13)CC2 in terms of pIC50 is 8.85

pIC50 in this record for Cc1nccc(Sc2c(N)nc(N3CCC4(CC3)CO[C@@H](C)[C@H]4N)n3ccnc23)c1Cl : 8.28

pIC50 reading for Nc1nccc(Sc2cnc(N3CCC4(CC3)Cc3ncccc3[C@H]4N)n3ccnc23)c1Cl : 8.77

pIC50 reported for this compound N[C@@H]1c2cccnc2CC12CCN(c1ncc(Sc3ccnc(NC4CC4)c3Cl)c3nccn13)CC2 : 8.59

Just so you know, measured pIC50 for Nc1nc(N2CCC3(CCC[C@H]3N)CC2)n2ccnc2c1-c1cccc(Cl)c1Cl came out at 8.70

Memo: CC1(O)CN(c2nccc(Sc3cnc(N4CCC5(CC4)Cc4ncccc4[C@H]5N)n4ccnc34)c2Cl)C1 , reported pIC50: 9.00

// pIC50 value for C[C@@H]1OCC2(CCN(c3nc(N)c(Sc4cccnc4C(F)(F)F)c4nccn34)CC2)[C@@H]1N : 8.36

----------
- MEASUREMENT_NOTES: Pharmacokinetics assay in rats
- Type: in vivo, SD rats
- EXPERIMENTAL_PARAMETERS: male, SD, plasma; rat, PO 5 mg/kg; read-out: Maximum plasma concentration Cmax
ASSAY_METRIC: Cmax (ng/mL)
Give just the number in ng/mL; leave the unit off.

For record CNc1nccc(Sc2cnc(N3CCC4(CC3)Cc3ncccc3[C@H]4N)n3ccnc23)c1Cl the listed Cmax is 2510

Notebook: Cc1nc(N2CCC3(CC2)CO[C@@H](C)[C@H]3N)n2ccnc2c1-c1cccc(Cl)c1Cl (single isomer, unassigned) [The atropisomer with a RT of 1.495 minutes in Examples 3 and 4] , Cmax read as 1220

So, CNc1nccc(Sc2c(C)nc(N3CCC4(CC3)Cc3ncccc3[C@H]4N)n3ccnc23)c1Cl ? Its Cmax was 339

molecule C[C@@H]1OCC2(CCN(c3ncc(Sc4cccnc4C(F)(F)F)c4nccn34)CC2)[C@@H]1N , Cmax observed: 408

----------
- MEASUREMENT_NOTES: Pharmacokinetics assay in rats
- Format: in vivo, SD rats
- EXPERIMENTAL_PARAMETERS: male, SD, plasma; rat, IV 1 mg/kg; read-out: Area under curve AUC
Please provide measured AUC for the entries that follow.
Form entry: value (ng·h/mL) — number only.

Lab note: Cc1nc(N2CCC3(CC2)CO[C@@H](C)[C@H]3N)n2ccnc2c1-c1cccc(Cl)c1Cl (single isomer, unassigned) [The atropisomer with a RT of 1.495 minutes in Examples 3 and 4] gave AUC of 3130

Looking up CNc1nccc(Sc2cnc(N3CCC4(CC3)Cc3ncccc3[C@H]4N)n3ccnc23)c1Cl , I found its AUC recorded as 6640

The compound listed as C[C@@H]1OCC2(CCN(c3ncc(Sc4cccnc4C(F)(F)F)c4nccn34)CC2)[C@@H]1N shows AUC equal to 764

Reported AUC ( CNc1nccc(Sc2c(C)nc(N3CCC4(CC3)Cc3ncccc3[C@H]4N)n3ccnc23)c1Cl ) = 1130

----------
- MEASUREMENT_NOTES: Pharmacokinetics assay in rats
- Format: in vivo, SD rats
- EXPERIMENTAL_PARAMETERS: male, SD, plasma; rat, PO 5 mg/kg; read-out: Half-life T1/2 (converted)
- Experimental: Rats were used as test animals. The drug concentration in plasma at different time points was determined by LC/MS/MS method after intravenous administration or intragastrical administration of the compound of the present invention to rats. The pharmacokinetic behavior of the compound of the present invention was studied and evaluated in rats. The atropisomer with a RT of 1.495 minutes in Examples 3 and 4, compounds of Example 17, Example 41 and Example 43. […]
For each record, write down the corresponding half-life.
Your answer should be a plain number; it is taken to be in h.

Form field half-life, entry CNc1nccc(Sc2c(C)nc(N3CCC4(CC3)Cc3ncccc3[C@H]4N)n3ccnc23)c1Cl [Example 41] : 4.22

// field: half-life; key: C[C@@H]1OCC2(CCN(c3ncc(Sc4cccnc4C(F)(F)F)c4nccn34)CC2)[C@@H]1N [Example 17] ; value = 3.42

Just so you know, measured half-life for Cc1nc(N2CCC3(CC2)CO[C@@H](C)[C@H]3N)n2ccnc2c1-c1cccc(Cl)c1Cl (single isomer, unassigned) [The atropisomer with a RT of 1.495 minutes in Examples 3 and 4] came out at 6.18

Lookup result for CNc1nccc(Sc2cnc(N3CCC4(CC3)Cc3ncccc3[C@H]4N)n3ccnc23)c1Cl [Example 43] ; measured half-life: 4.17

----------
Provide the reported half-life of each item.
- MEASUREMENT_NOTES: Pharmacokinetics assay in rats
- Type: in vivo, SD rats
- EXPERIMENTAL_PARAMETERS: male, SD, plasma; rat, IV 1 mg/kg; read-out: Half-life T1/2 (converted)
- Experimental: Rats were used as test animals. The drug concentration in plasma at different time points was determined by LC/MS/MS method after intravenous administration or intragastrical administration of the compound of the present invention to rats. The pharmacokinetic behavior of the compound of the present invention was studied and evaluated in rats. The atropisomer with a RT of 1.495 minutes in Examples 3 and 4, compounds of Example 17, Example 41 and Example 43. […]
# output: bare number, implied unit h

Looking up C[C@@H]1OCC2(CCN(c3ncc(Sc4cccnc4C(F)(F)F)c4nccn34)CC2)[C@@H]1N , I see its half-life listed as 2.83

In plain terms, Cc1nc(N2CCC3(CC2)CO[C@@H](C)[C@H]3N)n2ccnc2c1-c1cccc(Cl)c1Cl (single isomer, unassigned) [The atropisomer with a RT of 1.495 minutes in Examples 3 and 4] has a documented half-life of 5.5

Value of measured half-life for the entry CNc1nccc(Sc2c(C)nc(N3CCC4(CC3)Cc3ncccc3[C@H]4N)n3ccnc23)c1Cl : 5.33

Consider CNc1nccc(Sc2cnc(N3CCC4(CC3)Cc3ncccc3[C@H]4N)n3ccnc23)c1Cl . Its measured half-life is 4.71

----------
- MEASURED_ON: SHP2 E69K (Homo sapiens, UniProt Q06124, E69K)
- Construct: recombinantly expressed full-length SHP2 (aa 1-593) with E69K and E76K; purchased Novoprotein Scientific Inc
- Sequence (Q06124 1-593 E69K): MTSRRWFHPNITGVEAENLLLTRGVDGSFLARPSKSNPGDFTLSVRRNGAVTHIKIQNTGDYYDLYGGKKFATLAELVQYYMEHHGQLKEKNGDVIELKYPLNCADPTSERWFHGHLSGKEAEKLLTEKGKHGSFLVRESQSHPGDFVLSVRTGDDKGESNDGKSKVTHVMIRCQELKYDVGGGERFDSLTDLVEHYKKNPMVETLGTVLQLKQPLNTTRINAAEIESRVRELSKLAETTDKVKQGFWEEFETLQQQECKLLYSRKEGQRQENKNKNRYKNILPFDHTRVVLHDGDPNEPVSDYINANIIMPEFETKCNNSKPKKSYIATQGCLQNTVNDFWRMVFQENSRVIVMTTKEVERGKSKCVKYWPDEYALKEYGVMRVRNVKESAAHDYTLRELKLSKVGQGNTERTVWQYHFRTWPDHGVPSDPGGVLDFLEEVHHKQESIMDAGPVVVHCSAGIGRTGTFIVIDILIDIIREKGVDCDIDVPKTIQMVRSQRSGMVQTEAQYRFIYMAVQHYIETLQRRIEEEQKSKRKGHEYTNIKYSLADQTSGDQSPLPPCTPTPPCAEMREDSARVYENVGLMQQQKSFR
- MEASUREMENT_NOTES: In vitro activity on SHP2 mutant E69K phosphatase
- Assay type: biochemical
- EXPERIMENTAL_PARAMETERS: SHP2 E69K the activated polypeptide was not added IC50, activated polypeptide not added
ASSAY_METRIC: IC50 (nM)
# unit: nM | format: bare number

Memo: CNc1nccc(Sc2c(C)nc(N3CCC4(CC3)Cc3ncccc3[C@H]4N)n3ccnc23)c1Cl [Example 41] , reported IC50: 0.91

Cited source: patent US20220073521A1
